Study Target: T1, recombinant human ILT3 ectodomain with C-terminal histidine tag (human, UniProt Q8NHJ6 22-259)
T1 construct: also called recombinant ILT3; hILT3; not shown: C-terminal histidine tag
T1 sequence (Q8NHJ6 22-259 D223G): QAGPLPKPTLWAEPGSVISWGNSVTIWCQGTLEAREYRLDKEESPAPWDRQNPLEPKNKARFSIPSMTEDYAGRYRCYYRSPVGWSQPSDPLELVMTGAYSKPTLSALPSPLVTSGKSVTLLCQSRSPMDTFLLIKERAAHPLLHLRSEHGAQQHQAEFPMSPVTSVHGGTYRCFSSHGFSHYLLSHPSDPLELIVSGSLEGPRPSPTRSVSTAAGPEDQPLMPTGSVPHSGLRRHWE
Assay Notes: BLI (Octet Red), antibody on Protein A biosensors, recombinant ILT3 in solution
pKd: −log10 of the molar value.
pKd overview

- Binder: "10A5_24A2 (antibody, V domains shown, Recombinant antibody from CHO cells) VH: QLQLQESGPGLVNPSKTLSLTCNVSGGSMSNYFWSWIRQPPGKGLEWIGYIYNSGNTNYHPSLQSRVTISVDTSKNLFSLKLTSVTAADTAVYYCARRGGYYGSGNYGGLDVWGHGTTVTVSS VL: DIQMTQSPSSLSASVGDRVTITCRASQGISNYLAWYQQKPGKVPKLLIYAASTLQSGVPSRFSGTGSGTDFTLTISSLQPEDVATYYCQKYDSAPWTFGQGTKVEIK"
  pKd: 8.70
- Binder: "5A2_24A1 (antibody, V domains shown, Recombinant antibody from CHO cells) VH: QVQLQESGPGLVNPSKTLSLTCTVSGGSISRYFWSWIRQPPGKGLEWIGYIYDSGSTNYNPSLKSRVTISVDTSKNHFSLKLSSVTAADTAVYYCARRGGYYGSGSYGGMDVWGQGTTVTVSS VL: DIQMTQSPSSLSASVGDRVTITCRASQGISNYLAWYQQKPGKIPKLLISAASTLQSGVPSRFSGSGSGTDFTLTISSLQPEDVATYYCQKYDSAPWTFGQGTKVEIK"
  pKd: 7.52
- Binder: "17F4_27C6 (antibody, V domains shown, Recombinant antibody from CHO cells) VH: QVQLVESGGGVVQPGRSLRLSCAASGFTFSTYGIHWVRQAPGKGLEWVAVIWFDGSNKYYADSVKGRFTISRDNSKNTLYLQMNSLRAEDTAVYYCARDVISMVRGVPFDYWGQGTLVTVSS VL: DAVVTQESALTTSPGETVTLTCRSSTGAVTTSNYANWVQEKPDHLFTGLIGGINNRVPGVPARFSGSLIGDKAALTITGAQTEDEAIYFCALWYSNHWVFGGGTKVTVLG"
  pKd: 8.52
- Binder: "14E7_27C1 (antibody, V domains shown, Recombinant antibody from CHO cells) VH: QVQLQESGPGLVKPSETLSLTCTVSGGSISSYYWSWIRQPPGKGLEWIGYIYYSGSTNYNPSLKSRLTISVDTSKNQFSLKLSSVTAADTAVYYCARRGYSYGYYYGMDVWGQGTTVTVSS VL: DIQMTQSPSSLSASVGDRVTITCRASQDISNYLAWYQQKPGKVPKLLISPASTLQSGVPSRFSGSGSGTDFTLTISSLQPEDVATYYCQKYNSAPWTFGQGTKLEIK"
  pKd: 7.12
- Binder: "7C12_24A6 (antibody, V domains shown, Recombinant antibody from CHO cells) VH: QVQLQESGPGLVNPSKTLSLTCTVSGGSISSYFWSWIRQPPGKGLEWIGYIYDSGSTNYNPSLKSRVTISVDTSKNHFSLKLSSVTAADTAVYYCARRGGYYGSGSYGGMDVWGQGTTVTVSS VL: DIQMTQSPSSLSASVGDRVTITCRASQGISNYLAWYQQKPGKVPKLLISAASTLQSGVPSRFSGSGSGTDFTLTISSLQPEDVATYYCQKYNSAPWTFGQGTKLEIK"
  pKd: 7.30
- Binder: "1C4_24B3 (antibody, V domains shown, Recombinant antibody from CHO cells; also called 1C4_24B4) VH: QVQLQEAGPGLVNPSKTLSLTCTVSGGSISSYFWSWIRQPPGKGLEWIGYIYNSGSTNYNPSLQSRVTISVDMSKNHFSLKLSSVTAADTAVYYCARRGGYYGSGNYGGMDVWGQGTTVTVSS VL: DIQMTQSPSSLSASAGDRVTITCRASQGISNYLAWYQQKPGKVPKLLMYAASALQSGVPSRFSGSGSGTDFTLTISSLQPEDVATYYCQKYDSAPWTFGQGTKVEIK"
  pKd: 7.92
- Binder: "11H10_27D4 (antibody, V domains shown, Recombinant antibody from CHO cells) VH: QVQLVESGGGVVQPGRSLRLSCAASGFTFSNYGIHWVRQAPGKGLEWVAVIWFDGNNKYYADSVKGRFTISRDNSKNTLYLQMNSLRAEDTAVYYCARDVITLVRGVPFDYWGQGTLVTVSS VL: DAVVTQESALTTSPGETVTVTCRSSTGAVTTSNYANWVQEKPDHLFTGLIGGINNRAPGVPARFSGSLIGDKAALTITGAQTEDEAIYFCALWYSNHWVFGGGTKLTVLG"
  pKd: 9.00
- Binder: "5E3-24B4 (antibody, V domains shown, Recombinant antibody from CHO cells) VH: QVQLQESGPGLVKPSETLSLTCTVSGGSISSHYWNWIRQPPGKGLEWIGYIHYSGGTNYNPSQKSRVTISVDTSKNQFSLKLSSVTAADTAVYYCAGRRYYFDSSGYLDYWGQGTLVTVSS VL: DIQMTQSPSSLSASVGDRVTITCRASQGISNYLAWYQQKPGKIPKLLIYAASTLQSGVPSRFSGSGSGTDFTLTISSLQPEDVATYYCQKYNSAPWTFGQGTKLEIK"
  pKd: 8.70
- Binder: "20H6_24C3 (antibody, V domains shown, Recombinant antibody from CHO cells) VH: QVQLQESGPGLLKPSETLSLTCTVSGGSISPYYWSWIRQPPGKGLEWIGYIYYSGNTNYNPSLQSRLTISVDTSKNQFSLKLSSVTAADTAVYYCARRGYSFGFYYGLDVWGQGTTVTVSS VL: DIQMTQSPSSLSASVGDRVTITCRASQDISIYLAWYQQKPGKVPNLLIYLASTLQSGVPSRFSGSGSGTDFTLTISSLQPEDVATYYCQKYNSAPWTFGQGTKLEIK"
  pKd: 9.00
- Binder: "8E11B6 (antibody, V domains shown) VH: QVQLEESGGGVVQPGRSLRLSCAASGFTFSSYGMHWVRQAPGKGLEWVAVIWYDGSNTYYADSVKGRFTISRDNSKNTLYLQMNSLRAEDTAVYYCARERETFFYVMDAWGQGASVTVSS VL: DIQMTQSPSTLSASVGDRVTITCRASQSISSWLAWYQQKPGKAPKLLIYKASSLESGVPSRFSGSGSGTEFTLTISSLQPDDFAIYYCQQFNRFITFGQGTRLEIK"
  pKd: 8.00
